For each of the compounds below, state its GI50.
System: K562
protocol: Cytotoxicity against human K562 cells after 48 hrs by SRB assay
Type: functional
recorded-conditions: K562, 48 h
Write the answer as a number in µM, unit excluded.

Lab note: measured GI50 of C=C1NC(=O)[C@H](Cc2ccccc2)NC(=O)[C@@H](C(C)C)NC(=O)[C@@H]([C@H](C)CC)NC(=O)[C@H](NC(=O)[C@H](NC(=O)[C@H](CCCN)NC(=O)[C@H]2CCCN2C(=O)[C@H](NC(=O)[C@@H](NC(=O)[C@@H](NC(=O)[C@H](NC(=O)CCCC(C)C)C(C)C)[C@@H](C)O)C(C)C)C(C)C)[C@H](C)CC)[C@H](C)OC(=O)[C@H](C(C)C)NC1=O was 2.47

Looking up CC[C@@H](C)[C@@H](NC(=O)[C@H](CCCN)NC(=O)[C@H]1CCCN1C(=O)[C@H](NC(=O)[C@@H](NC(=O)[C@@H](NC(=O)[C@H](NC(=O)CCCC(C)C)C(C)C)[C@@H](C)O)C(C)C)C(C)C)C(=O)N[C@H]1C(=O)N[C@H]([C@H](C)CC)C(=O)N[C@H](C(C)C)C(=O)N[C@@H](Cc2ccccc2)C(=O)NCC(=O)N[C@@H](C(C)C)C(=O)O[C@H]1C , I found its GI50 recorded as 2.53
